Give EC50 for every item shown.
System: human breast adenocarcinoma (MCF-7) cells
Test: Sulforhodamine B (SRB) cell cytotoxicity assay, MCF-7 cells
Type: cell-based
Details: Homo sapiens, MCF7, 24 h of drug treatment, SRB assay
Respond numerically; units are nM and should not be typed.

input: Lab note: need EC50 for Cc1ccc(-n2cc(CN(CC(=O)NC3CCCCC3)C(=O)C3=CC[C@H]4C[C@@H]3C4(C)C)nn2)cc1 on human breast adenocarcinoma (MCF-7) cells, anyone have it?
output: 24

input: # repeat for CC1(C)[C@H]2CC=C(C(=O)N(CC(=O)NC3CCCCC3)Cc3cn(-c4cccc(Cl)c4)nn3)[C@@H]1C2
output: 24

input: # repeat for CC1(C)[C@H]2CC=C(Cn3cc(CN(CC(=O)NC4CCCCC4)C(=O)C4=CC[C@H]5C[C@@H]4C5(C)C)nn3)[C@@H]1C2
output: 22

input: # repeat for COc1ccc(-n2cc(CN(CC(=O)NC3CCCCC3)C(=O)C3=CC[C@H]4C[C@@H]3C4(C)C)nn2)cc1
output: 38

input: # repeat for CC(=O)N(Cc1ccccc1)C(C(=O)NC1CCCCC1)C1=CC[C@H]2C[C@@H]1C2(C)C (some centres unmarked)
output: 65

----------
Test system: human gastric adenocarcinoma (AGS) cells
Experiment: Sulforhodamine B (SRB) cell cytotoxicity assay, AGS cells
Assay type: cell-based
Conditions: 60 ng/mL, 24 h
measured.parameter: cytotoxicity against AGS cells at the lowest concentration

Sample records with cytotoxicity against AGS cells at the lowest concentration:
>  <molecule>
Cc1ccc(-n2cc(CN(CC(=O)NC3CCCCC3)C(=O)C3=CC[C@H]4C[C@@H]3C4(C)C)nn2)cc1

>  <value>
high cytotoxicity

$$$$
>  <molecule>
CC1(C)[C@H]2CC=C(Cn3cc(CN(CC(=O)NC4CCCCC4)C(=O)C4=CC[C@H]5C[C@@H]4C5(C)C)nn3)[C@@H]1C2

>  <value>
high cytotoxicity

$$$$
>  <molecule>
COc1ccc(-n2cc(CN(CC(=O)NC3CCCCC3)C(=O)C3=CC[C@H]4C[C@@H]3C4(C)C)nn2)cc1

>  <value>
high cytotoxicity

$$$$
>  <molecule>
CC1(C)[C@H]2CC=C(C(=O)N(CC(=O)NC3CCCCC3)Cc3cn(-c4cccc(Cl)c4)nn3)[C@@H]1C2

>  <value>
high cytotoxicity

$$$$

input: Need cytotoxicity against AGS cells at the lowest concentration of CC(=O)N(Cc1ccccc1)C(C(=O)NC1CCCCC1)C1=CC[C@H]2C[C@@H]1C2(C)C (stereo partly drawn) , thanks.
output: high cytotoxicity

----------
System: primary CD4+ T cells
Assay: Viability and cell count of activated CD4+ T lymphocytes per proliferation cycle (flow cytometry)
Assay type: cell-based, human
Settings: cycle 0 and 1; compounds added at EC25 48 h after activation, incubated four days
measured.parameter: viability of non-proliferating CD4+ T cells

>  <compound>
CC(=O)N(Cc1ccccc1)C(C(=O)NC1CCCCC1)C1=CC[C@H]2C[C@@H]1C2(C)C (stereo partly shown)

>  <value>
reduced viability

$$$$
>  <compound>
Cc1ccc(-n2cc(CN(CC(=O)NC3CCCCC3)C(=O)C3=CC[C@H]4C[C@@H]3C4(C)C)nn2)cc1

>  <value>
reduced viability

$$$$
>  <compound>
COc1ccc(-n2cc(CN(CC(=O)NC3CCCCC3)C(=O)C3=CC[C@H]4C[C@@H]3C4(C)C)nn2)cc1

>  <value>
reduced viability

$$$$

----------
Test system: primary CD4+ T cells
Experiment: Viability and cell count of activated CD4+ T lymphocytes per proliferation cycle (flow cytometry)
Assay type: cell-based, human
Details: cycle 2, 3 and 4; compounds added at EC25 48 h after activation, incubated four days
measured.parameter: viability / number of proliferating CD4+ T cells

>  <molecule>
CC(=O)N(Cc1ccccc1)C(C(=O)NC1CCCCC1)C1=CC[C@H]2C[C@@H]1C2(C)C (stereo partly shown) [1a]

>  <value>
reduced viability

$$$$
>  <molecule>
COc1ccc(-n2cc(CN(CC(=O)NC3CCCCC3)C(=O)C3=CC[C@H]4C[C@@H]3C4(C)C)nn2)cc1 [3c]

>  <value>
reduced viability

$$$$
>  <molecule>
Cc1ccc(-n2cc(CN(CC(=O)NC3CCCCC3)C(=O)C3=CC[C@H]4C[C@@H]3C4(C)C)nn2)cc1 [3a]

>  <value>
reduced viability

$$$$
